MFI reference
- Target or test system: T1, Human CD3 on CD3+ Jurkat cells (human, UniProt P07766 23-207)
- T1 construct: whole, on cells; Target is the endogenous CD3 complex on cells; also called Human CD3+ Jurkat cells
- T1 sequence (P07766 23-207): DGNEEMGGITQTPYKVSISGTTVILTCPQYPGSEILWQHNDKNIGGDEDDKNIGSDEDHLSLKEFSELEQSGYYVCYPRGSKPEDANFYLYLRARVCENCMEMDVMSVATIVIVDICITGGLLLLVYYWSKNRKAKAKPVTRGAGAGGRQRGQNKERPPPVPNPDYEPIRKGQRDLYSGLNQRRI
- Test description: flow cytometry, 100 nM IgG
- Method: Specificity of the anti-CD3 antibodies for human CD3+ Jurkat cells and Cynomolgus monkey HSC-F cells was determined using a FACS cell binding assay. Briefly, cells were thawed and washed with cold PBSF buffer (PBS+0.1% BSA, pH 7.4). About 200,000 cells were aliquoted per well of a 96-well plate and pelleted by centrifugation (5 minutes at 500×g). The cells were washed and resuspended in 100 μl PBSF with CHO-produced anti-CD3 IgG antibody (100 nM). […] Binding was analyzed on FACS Canto II. […]
Reported property: MFI (MFI)

{"Binder": "Antibody No. A002 (ADI-50024) IgG1 (antibody, V domains shown, IgG1, CHO-produced) VH: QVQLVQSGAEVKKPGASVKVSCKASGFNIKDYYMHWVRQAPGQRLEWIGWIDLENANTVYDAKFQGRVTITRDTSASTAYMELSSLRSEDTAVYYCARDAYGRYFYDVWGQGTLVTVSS VL: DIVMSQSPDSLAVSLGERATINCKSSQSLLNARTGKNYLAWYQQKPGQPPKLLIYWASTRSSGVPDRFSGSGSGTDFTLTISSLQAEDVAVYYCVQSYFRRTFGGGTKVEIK", "Recorded result": 3410}
{"Binder": "Antibody No. V005 (ADI-67448) IgG1 (antibody, V domains shown, IgG1, CHO-produced; VH as printed is identical to that of V004) VH: QVQLVQSGAEVKKPGASVKVSCKASGFNIDDYYMHWVRQAPGQRLEWMGWIDLENDNTIYDAKFQGRVTITRDTSASTAYMELSSLRSEDTAVYYCARDAYGRYFYDVWGQGTLVTVSS VL: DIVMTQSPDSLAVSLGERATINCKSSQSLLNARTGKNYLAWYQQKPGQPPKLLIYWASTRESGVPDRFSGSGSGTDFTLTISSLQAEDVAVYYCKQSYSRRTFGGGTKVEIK", "Recorded result": 3150}
{"Binder": "Antibody No. V013 (ADI-70330) IgG1 (antibody, V domains shown, IgG1, CHO-produced) VH: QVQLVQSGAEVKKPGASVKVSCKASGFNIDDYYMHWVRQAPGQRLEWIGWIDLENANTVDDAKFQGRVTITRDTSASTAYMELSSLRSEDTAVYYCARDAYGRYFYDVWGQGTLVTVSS VL: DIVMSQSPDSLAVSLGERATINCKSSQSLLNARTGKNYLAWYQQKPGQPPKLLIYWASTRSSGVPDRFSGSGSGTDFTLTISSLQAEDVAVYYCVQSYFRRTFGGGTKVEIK", "Recorded result": 2950}
